Listed binders paired with reported MFI
- tgt: T1, human CD28, full-length, expressed on transfected Expi293 cells (human, UniProt P10747 19-220)
- T1 construct: whole, on cells
- run description: flow cytometry, 100 nM, Expi293 cells with human CD28
Provide the reading as a plain figure in MFI.

Per the record, variant ICOSL IgV-Fc fusion N52A/N57H/Q100S (Fc fusion) DTQEKEVRAMVGSDVELSCACPEGSRFDLNDVYVYWQTSESKTVVTYHIPQASSLEHVDSRYRNRALMSPAGMLRGDFSLRLFNVTPQDEQKFHCLVLSSSLGFQEVLSVEVTLHVAANFSVGSGGGGSEPKSSDKTHTCPPCPAPEAEGAPSVFLFPPKPKDTLMISRTPEVTCVVVDVSHEDPEVKFNWYVDGVEVHNAKTKPREEQYNSTYRVVSVLTVLHQDWLNGKEYKCKVSNKALPAPIEKTISKAKGQPREPQVYTLPPSREEMTKNQVSLTCLVKGFYPSDIAVEWESNGQPENNYKTTPPVLDSDGSFFLYSKLTVDKSRWQQGNVFSCSVMHEALHNHYTQKSLSLSPG has MFI of 159000

# context switch: different binder, same MFI
Per the record, variant ICOSL IgV-Fc fusion N52R/N57F/Q100R (Fc fusion) DTQEKEVRAMVGSDVELSCACPEGSRFDLNDVYVYWQTSESKTVVTYHIPQRSSLEFVDSRYRNRALMSPAGMLRGDFSLRLFNVTPQDEQKFHCLVLSRSLGFQEVLSVEVTLHVAANFSVGSGGGGSEPKSSDKTHTCPPCPAPEAEGAPSVFLFPPKPKDTLMISRTPEVTCVVVDVSHEDPEVKFNWYVDGVEVHNAKTKPREEQYNSTYRVVSVLTVLHQDWLNGKEYKCKVSNKALPAPIEKTISKAKGQPREPQVYTLPPSREEMTKNQVSLTCLVKGFYPSDIAVEWESNGQPENNYKTTPPVLDSDGSFFLYSKLTVDKSRWQQGNVFSCSVMHEALHNHYTQKSLSLSPG has MFI of 185000
